system: Nucleic Acid; test: Binding affinity to Escherichia coli 23S rRNA U2585 assessed as degree of protection against CMCT at 50 uM by Chemical footprinting analysis relative to control; assay type: nucleic-acid assay
Kind request: treat 0.2 as inclusive, so Ratio at 0.2 or higher is met, anything lower is not met.

Prompt line: Does Ratio meet or surpass 0.2 for C=C[C@]1(C)C[C@@H](OC(=O)Cn2cc(-c3cccc(-n4cnc5c(N)ncnc54)c3)nn2)[C@]2(C)[C@H](C)CC[C@]3(CCC(=O)[C@H]32)[C@@H](C)[C@@H]1O ?
Response line: not met

Prompt line: Follow-up item: C=C[C@]1(C)C[C@@H](OC(=O)Cn2nncc2CCCn2cnc3c(N)ncnc32)[C@]2(C)[C@H](C)CC[C@]3(CCC(=O)[C@H]32)[C@@H](C)[C@@H]1O
Response line: not met

Prompt line: Follow-up item: C=C[C@]1(C)C[C@@H](OC(=O)Cn2ccnn2)[C@]2(C)[C@H](C)CC[C@]3(CCC(=O)[C@H]32)[C@@H](C)[C@@H]1O
Response line: met

Others:
Prompt line: Does Ratio meet or surpass 0.2 for C=C[C@]1(C)C[C@@H](OC(=O)Cn2cc(-c3ccc(-n4cnc5c(N)ncnc54)cc3)nn2)[C@]2(C)[C@H](C)CC[C@]3(CCC(=O)[C@H]32)[C@@H](C)[C@@H]1O ?
Response line: met

Prompt line: Follow-up item: C=C[C@]1(C)C[C@@H](OC(=O)CO)[C@]2(C)[C@H](C)CC[C@]3(CCC(=O)[C@@H]32)[C@@H](C)[C@@H]1O
Response line: met

Prompt line: Follow-up item: C=C[C@]1(C)C[C@@H](OC(=O)Cn2cc(COCn3cc(C)c(=O)[nH]c3=O)nn2)[C@]2(C)[C@H](C)CC[C@]3(CCC(=O)[C@H]32)[C@@H](C)[C@@H]1O
Response line: met

Prompt line: Follow-up item: C=C[C@]1(C)C[C@@H](OC(=O)Cn2cc(COCn3cnc4c(N)ncnc43)nn2)[C@]2(C)[C@H](C)CC[C@]3(CCC(=O)[C@H]32)[C@@H](C)[C@@H]1O
Response line: met

Prompt line: Follow-up item: C=C[C@]1(C)C[C@@H](OC(=O)Cn2cc(COCCn3cc(C)c(=O)[nH]c3=O)nn2)[C@]2(C)[C@H](C)CC[C@]3(CCC(=O)[C@H]32)[C@@H](C)[C@@H]1O
Response line: met

Prompt line: Follow-up item: C=C[C@]1(C)C[C@@H](OC(=O)CSC(C)(C)CNC(=O)[C@H](N)C(C)C)[C@]2(C)[C@H](C)CC[C@]3(CCC(=O)[C@H]32)[C@@H](C)[C@@H]1O
Response line: not met

Prompt line: Follow-up item: C=C[C@]1(C)C[C@@H](OC(=O)Cn2cc(/C=C/Cn3cc(C)c(=O)[nH]c3=O)nn2)[C@]2(C)[C@H](C)CC[C@]3(CCC(=O)[C@H]32)[C@@H](C)[C@@H]1O
Response line: met

Prompt line: Follow-up item: C=C[C@]1(C)C[C@@H](OC(=O)Cn2cc(COCc3ccccc3)nn2)[C@]2(C)[C@H](C)CC[C@]3(CCC(=O)[C@H]32)[C@@H](C)[C@@H]1O
Response line: met
